System: inner membrane of E. coli
Assay: G-GECO1 fluorescence screening of the 3xNNK S2168 pinholin library in microtiter plates (Example 12)
Conditions: sigmoid fit with equation 1 (high d = low slope); pCTRL2.T7.100.sRBS library, G-GECO1
measured-metric: Slope [d]
Answer with the value's number alone.

Query string: Please look up its Slope [d]: Clone P3E5 (protein, Mutant of S21-71 anti-pinholin of bacteriophage P21) MFQWDKISTGIAYGTSAGSAGYWFLQWLDQVSPSQWAAIGVLGSLVLGFLTYLTNLYFKIREDRRKAARGE
Result string: 28.25

Query string: Please look up its Slope [d]: Clone P14E5 (protein, Mutant of S21-71 anti-pinholin of bacteriophage P21) MYLEDKISTGIAYGTSAGSAGYWFLQWLDQVSPSQWAAIGVLGSLVLGFLTYLTNLYFKIREDRRKAARGE
Result string: 4.908

Query string: Please look up its Slope [d]: Clone P15D3 (protein, Mutant of S21-71 anti-pinholin of bacteriophage P21) MDWDDKISTGIAYGTSAGSAGYWFLQWLDQVSPSQWAAIGVLGSLVLGFLTYLTNLYFKIREDRRKAARGE
Result string: 6.727

Query string: Please look up its Slope [d]: Clone P7D10 (protein, Mutant of S21-71 anti-pinholin of bacteriophage P21) MAGWDKISTGIAYGTSAGSAGYWFLQWLDQVSPSQWAAIGVLGSLVLGFLTYLTNLYFKIREDRRKAARGE
Result string: 22.49

Provenance of the data: patent US20230050056A1
